Tested on: HIV-1 LTR-III G-quadruplex (FAM/TAMRA-labeled LTR-III)
Experiment: FRET melting assay, LTR-III G4
Type: binding
Conditions: Table S1 primary screening, ligand:ODN 50:1, singlicate
Measured attribute: LTR-III ΔTm

Sample records with LTR-III ΔTm:
| Compound | LTR-III ΔTm |
| --- | --- |
| CN1C(=O)C(=Cc2ccc(OCc3ccccc3)cc2)N=C1C(C)(C)C | -0.2 °C |
| CC1=NC(=Cc2ccc(N)c(O)c2)C(=O)N1C | 0.9 °C |
| COc1cc(C=C2N=C(C(F)(F)F)N(C)C2=O)c(OC)cc1O [M 2738d] | 1.4 °C |
| CNc1ccc(C=C2N=C(C)N(C)C2=O)cc1N | 0.9 °C |

// switching to the query compound
Note LTR-III ΔTm for the compound shown: `COc1cc(/C=C2N=C(/C=C/c3ccncc3)N(C)C\2=O)cc(OC)c1O`
2.4 °C
